Hi there, I'd appreciate the recorded Dmax for every entry that follows.
# SYSTEM NAME: EGFR L858R (BaF3-L858R cells) (Homo sapiens, UniProt P00533, L858R)
# Construct: host or cells: BaF3
# Sequence (P00533 25-1210 L858R): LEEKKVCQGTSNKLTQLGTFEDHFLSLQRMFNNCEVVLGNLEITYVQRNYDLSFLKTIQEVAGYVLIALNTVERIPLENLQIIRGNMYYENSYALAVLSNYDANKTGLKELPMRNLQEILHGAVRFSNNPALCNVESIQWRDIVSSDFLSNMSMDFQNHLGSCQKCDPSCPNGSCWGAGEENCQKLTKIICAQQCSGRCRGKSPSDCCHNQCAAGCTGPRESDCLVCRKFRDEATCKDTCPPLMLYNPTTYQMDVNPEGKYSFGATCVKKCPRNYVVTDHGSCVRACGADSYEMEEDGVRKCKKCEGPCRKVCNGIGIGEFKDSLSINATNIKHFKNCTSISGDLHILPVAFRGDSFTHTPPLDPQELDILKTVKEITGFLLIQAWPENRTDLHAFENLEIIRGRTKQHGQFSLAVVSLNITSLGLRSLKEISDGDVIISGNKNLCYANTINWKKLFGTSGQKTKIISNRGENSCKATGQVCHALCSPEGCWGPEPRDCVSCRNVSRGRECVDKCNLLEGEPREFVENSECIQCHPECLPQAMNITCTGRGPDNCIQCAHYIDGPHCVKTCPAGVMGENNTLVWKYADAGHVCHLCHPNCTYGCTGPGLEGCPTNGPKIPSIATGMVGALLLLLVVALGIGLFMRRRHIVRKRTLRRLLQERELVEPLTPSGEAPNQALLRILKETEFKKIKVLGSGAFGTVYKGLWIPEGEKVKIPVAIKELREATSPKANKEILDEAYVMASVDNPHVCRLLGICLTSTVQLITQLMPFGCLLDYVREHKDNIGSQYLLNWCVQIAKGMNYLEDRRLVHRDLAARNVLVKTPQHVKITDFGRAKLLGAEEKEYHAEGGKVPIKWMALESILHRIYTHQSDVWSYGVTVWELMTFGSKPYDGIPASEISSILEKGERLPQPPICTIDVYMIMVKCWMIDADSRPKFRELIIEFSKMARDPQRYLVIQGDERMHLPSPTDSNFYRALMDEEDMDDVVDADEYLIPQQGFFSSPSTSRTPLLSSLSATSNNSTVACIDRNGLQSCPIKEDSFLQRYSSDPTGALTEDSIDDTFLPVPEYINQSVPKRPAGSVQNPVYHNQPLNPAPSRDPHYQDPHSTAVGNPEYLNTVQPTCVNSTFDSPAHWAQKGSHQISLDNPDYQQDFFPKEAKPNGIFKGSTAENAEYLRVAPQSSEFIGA
# ASSAY PROTOCOL: Cell degradation of EGFR, HTRF assay, BaF3-L858R cells
# Format: cell-based
# CONDITIONS: 16 h treatment, maximum percentage of degradation
Please give a number only; it is taken to be in %.

Endpoint output: Dmax of COC[C@H]1CN(c2ccc3c(c2)N2CC4CC[C@H](COc5c(c(C(F)F)nn5C)-c5cc(cc(C)n5)C(=O)/N=C/2N3)C4)CCN1C1CCN(c2cc(F)c([C@H]3CCC(=O)NC3=O)c(F)c2)CC1 [Example 104] . Value?
83.2

Subsequent entry: Cc1cc2cc(n1)-c1cnn(C)c1OC[C@H]1CCC(C1)CN1/C(=N/C2=O)Nc2ccc(N3CCN(C4(CO)CCN(c5ccc(C6CCC(=O)NC6=O)nc5C)CC4)CC3)cc21 (stereo partly shown) [Example 114]
75.7

Subsequent entry: COC[C@@H]1CN(c2ccc3c(c2)N2CC4CC[C@H](COc5c(cnn5C)-c5cc(cc(C)n5)C(=O)/N=C/2N3)C4)CCN1C1CN(C2CCN(c3cc(F)c([C@H]4CCC(=O)NC4=O)c(F)c3)CC2)C1 [Example 108]
87.3

Subsequent entry: Cc1cc2cc(n1)-c1cnn(C)c1OC[C@H]1CCC(C1)CN1/C(=N/C2=O)Nc2ccc(N3CCN(CCc4cc(F)c(C5CCC(=O)NC5=O)nc4C)CC3)cc21 (stereo partly shown) [Example 78]
87.8

Subsequent entry: COC[C@@H]1CN(c2ccc3c(c2)N2CC4CC[C@H](COc5c(cnn5C)-c5cc(cc(C)n5)C(=O)/N=C/2N3)C4)CCN1C1CCN(c2cc(F)c(C3CCC(=O)NC3=O)nc2C)CC1 (stereo partly shown) [Example 70]
87.7

Subsequent entry: Cc1cc2cc(n1)-c1cnn(C)c1OC[C@H]1CC[C@H](C1)CN1/C(=N/C2=O)Nc2ccc(N3CCC(N4CC(Nc5cc(F)c([C@H]6CCC(=O)NC6=O)c(F)c5)C4)CC3)cc21 [Example 112]
72.8

Subsequent entry: Cc1cc2cc(n1)-c1c(C)nn(C)c1OC[C@H]1CC[C@H](C1)CN1/C(=N/C2=O)Nc2ccc(N(C)C3CCN(C4CCN(c5cc(F)c([C@H]6CCC(=O)NC6=O)c(F)c5)CC4)CC3)cc21 [Example 143]
74.3

Subsequent entry: Cc1cc2cc(n1)-c1cnn(C)c1OC[C@H]1CC[C@H](C1)CN1/C(=N/C2=O)Nc2ccc(N3CCN(CC4CCN(c5ccc(C6CCC(=O)NC6=O)nc5C)CC4)CC3)cc21 (stereo partly shown) [Example 23]
86

Subsequent entry: Cc1cc2cc(n1)-c1cnn(C)c1OC[C@H]1CC[C@H](C1)CN1/C(=N/C2=O)Nc2ccc(N3CCN([C@@H]4CCN(c5ccc(C6CCC(=O)NC6=O)nc5C)C[C@@H]4F)CC3)cc21 (stereo partly shown) [Example 12]
90

Subsequent entry: Cc1cc2cc(n1)-c1cnn(C)c1OC[C@H]1CCC(C1)CN1/C(=N/C2=O)Nc2ccc(N3CCN(C4CCN(c5c(F)cc(NC6CCC(=O)NC6=O)cc5F)CC4)CC3)cc21 (stereo partly shown) [Example 92]
85.8
